Data origin: patent US20060116390A1

# System: HCV proteins in Rep5.1 cells (replicon cell line)
# RUN DESCRIPTION: Inhibitory activity of HCV: cell-based ELISA in replicon cell line Rep5.1 (decrease of HCV proteins)
# Parameters: species or system hepatitis C virus
# SETUP CONDITIONS: Hepatitis C virus, 72 h, Rep5.1 cells, 72 hours with drug, decrease of HCV proteins measured by HCV antibody; Table 1; read-out: Level (IC50 values classified)
REPORTED METRIC: IC50

Report IC50 for CCOC(=O)C1NC(=S)NC(C)=C1C(=O)OCCc1ccsc1 (stereo not drawn) please. > 20000 nM

Would you kindly share the measured IC50 for `CC1=C(C(=O)OCc2cc3c(C)nn(C)c3s2)CNC(=S)N1` ? 1000 to 10000 nM

Param item = `COc1ccc(COC(=O)C2=C(C)NC(=S)NC2)c(C)c1C` ; retrieve measured IC50. 10000 to 20000 nM

Quick one: IC50 of CC1=C(C(=O)OCC2CCOC2)CNC(=S)N1 (stereo not drawn) ? > 20000 nM

Form field: reported IC50 of `CC1=C(C(=O)OCc2cc(C(F)(F)F)cc(C(F)(F)F)c2)CNC(=S)N1` < 1000 nM

Using the record for `CC1=C(C(=O)OCCCc2cccs2)CNC(=S)N1` , report its IC50. < 1000 nM

Look up IC50 for this compound: `CC1=C(C(=O)OCCc2ccsc2)C2(CCC2)NC(=S)N1` 1000 to 10000 nM

Given the entry `CC1=C(C(=O)OCCc2c[nH]c3ccccc23)CNC(=S)N1` , report its measured IC50. 1000 to 10000 nM

GET /values?readout=IC50&item= COc1ccc(CCOC(=O)C2=C(C)NC(=S)NC2CO)cc1C (stereo not drawn) < 1000 nM

Look up IC50 for this compound: `CC1=C(C(=O)OCCc2cc3c(C)snc3s2)CNC(=S)N1` 1000 to 10000 nM

Others:
IC50 lookup needed for `O=C(OCc1ccccc1)C1=C(Cc2ccccc2)NC(=S)NC1` , thanks. 1000 to 10000 nM

Entry `CC1=C(C(=O)OCc2ccc(Cl)cc2)CNC(=S)N1` has what IC50? < 1000 nM

// returns reported IC50 for input CC1=C(C(=O)OCCc2ccsc2)C(CCl)NC(=S)N1 (stereo not drawn) > 20000 nM

Would you mind telling me what IC50 value was observed for `CC1=C(C(=O)OCc2c(C)cccc2C)CNC(=S)N1` ? 10000 to 20000 nM

Which IC50 value belongs to `CC1=C(C(=O)OC2CCN(Cc3ccccc3)CC2)CNC(=S)N1` ? > 20000 nM

Quick one: IC50 for `CC1=C(C(=O)OCc2ccc(C(C)(C)C)cc2)CNC(=S)N1` ? < 1000 nM

Requested read-out: IC50. Entry: `CC1=C(C(=O)OCCCc2ccc(C(F)(F)F)cc2)CNC(=S)N1` < 1000 nM

Using the record for CC1=C(C(=O)OCCc2cccc(OC(F)(F)F)c2)C(CO)NC(=S)N1 (stereo not drawn) , report its IC50. < 1000 nM

Which IC50 is listed for `CC1=C(C(=O)OCCCc2cccc(OC(F)(F)F)c2)CNC(=S)N1` ? < 1000 nM

Given CC1=C(C(=O)OCCc2cccc([N+](=O)[O-])c2)C(CO)NC(=S)N1 (stereo not drawn) , state its recorded IC50. 1000 to 10000 nM

Report IC50 for `CSc1ccc(CCCOC(=O)C2=C(C)NC(=S)NC2)cc1` please. < 1000 nM
